# TEST_DESCRIPTION: Clearance in healthy human (24 volunteers) at 400 mg, po reference formulation of drug administered as single dose by two-compartmental open model
# Type: ADME, organism-based
# CONDITION_CONTEXT: in vivo
OBSERVABLE: CL/F (mL/min/kg)
Give bare numbers, in mL/min/kg.

Looking up CC[C@H]1OC(=O)[C@H](C)[C@@H](O[C@H]2C[C@@](C)(OC)[C@@H](O)[C@H](C)O2)[C@H](C)[C@@H](O[C@@H]2O[C@H](C)C[C@H](N(C)C)[C@H]2O)[C@](C)(O)C[C@@H](C)C(=O)[C@H](C)[C@@H](O)[C@]1(C)O , I see its CL/F listed as 23.3
